Test system: HEK-293T
Experiment: Multiplex assay against HEK293T
Format: toxicity, cell-based
Conditions: human, 24 h, 1 µM, compound concentration 1 uM, replicate 1
Listed here are molecules together with their documented Population Healthy Nuclei (%).

{"molecule": "CC(C)OC(=O)N1CCC(Oc2ncnc3c2cnn3-c2ccc(S(C)(=O)=O)cc2F)CC1", "Population Healthy Nuclei (%)": 39}
{"molecule": "Cc1c[nH]c2nccc(Oc3c(F)cc(Nc4cc(Cl)nc(N)n4)cc3F)c12 [BAY-549]", "Population Healthy Nuclei (%)": 32}
{"molecule": "CCCSc1nc(N[C@@H]2C[C@H]2c2ccc(F)c(F)c2)c2nnn([C@@H]3C[C@H](OCCO)[C@@H](O)[C@H]3O)c2n1 [TICAGRELOR]", "Population Healthy Nuclei (%)": 32}
{"molecule": "COc1ccc(-c2ccc3ncc4c(c3c2)n(-c2ccc(N3CCNCC3)c(C(F)(F)F)c2)c(=O)n4C)cn1.O=C(O)/C=C\\C(=O)O [BGT-226]", "Population Healthy Nuclei (%)": 2}
{"molecule": "COc1cc2ncn(-c3cc(OCc4ccccc4C(F)(F)F)c(C(N)=O)s3)c2cc1OC [GW843682X]", "Population Healthy Nuclei (%)": 39}
{"molecule": "Cc1cccc(CN2CCN(C(c3ccccc3)c3ccc(Cl)cc3)CC2)c1.Cl.Cl (stereo not drawn)", "Population Healthy Nuclei (%)": 33}
{"molecule": "CNC(=O)Nc1ccc(-c2nc(N3CC4CCC(C3)O4)c3cnn(C4CCC5(CC4)OCCO5)c3n2)cc1", "Population Healthy Nuclei (%)": 5}
{"molecule": "CC1=C(C(=O)Nc2cc3cn[nH]c3cc2F)C(c2ccc(C(F)(F)F)cc2)CC(=O)N1 (stereo not drawn)", "Population Healthy Nuclei (%)": 41}
{"molecule": "CNC(=O)Nc1ccc2c(c1)[C@@]1(CC2)OC(=O)N(CC(=O)N(Cc2ccc(F)cc2)[C@@H](C)C(F)(F)F)C1=O [A-486]", "Population Healthy Nuclei (%)": 73}
{"molecule": "Cc1nc(N2CC[C@H](O)C2)ncc1-c1cc(C(F)(F)F)cc2[nH]ncc12", "Population Healthy Nuclei (%)": 79}
{"molecule": "CC(C)(C)NC[C@H](O)COc1nsnc1N1CCOCC1 [TIMOLOL]", "Population Healthy Nuclei (%)": 43}
{"molecule": "CC(C)c1noc(N2CCC(COc3ccc(-c4ccc(S(C)(=O)=O)cc4)nc3)CC2)n1 [GSK-1292263]", "Population Healthy Nuclei (%)": 32}
{"molecule": "CC(C)CC(=O)Nc1[nH]nc2c1CN(C(=O)C1CCN(C)CC1)C2(C)C [PHA-793887]", "Population Healthy Nuclei (%)": 81}
{"molecule": "Cl.O=C(O)c1cc(-c2ccc(C3CCNCC3)cc2)c2ccc(-c3ccc(C(F)(F)F)cc3)cc2c1", "Population Healthy Nuclei (%)": 33}
{"molecule": "CCOC(=O)Nc1cc(-c2ccc(C)c(NS(C)(=O)=O)c2)nn2c(C)nnc12", "Population Healthy Nuclei (%)": 78}
{"molecule": "O=c1cc(N2CCOCC2)oc2c(-c3cccc4c3sc3ccccc34)cccc12", "Population Healthy Nuclei (%)": 44}
{"molecule": "CCc1nn(CCCN2CCN(c3cccc(Cl)c3)CC2)c(=O)n1CCOc1ccccc1.Cl [NEFAZODONE HYDROCHLORIDE]", "Population Healthy Nuclei (%)": 57}
{"molecule": "COC(=O)C1=C(C)NC(C)=C(C(=O)OCCCN2CCC(c3ccccc3)(c3ccccc3)CC2)[C@H]1c1cccc([N+](=O)[O-])c1 [NIGULDIPINE]", "Population Healthy Nuclei (%)": 41}
{"molecule": "Cc1ccccc1C(c1ccccc1C)N1C2CCC1CC(O)(c1ccccc1)C2 (stereo not drawn)", "Population Healthy Nuclei (%)": 45}
{"molecule": "CC(C)NC(=O)N1CC[C@H](NC2=Nc3cc(F)ccc3N(CC(F)F)c3ccc(Cl)cc32)C1", "Population Healthy Nuclei (%)": 39}
{"molecule": "CC(C)Oc1ccccc1C(=O)Nc1ccccc1C(=O)Nc1cccc(S(=O)(=O)C(F)(F)F)c1", "Population Healthy Nuclei (%)": 44}
{"molecule": "C[C@]12CC[C@@H]3c4ccc(O)cc4CC[C@H]3[C@@H]1CC[C@@H]2O [ESTRADIOL]", "Population Healthy Nuclei (%)": 52}
{"molecule": "Cc1ccc2c(c1)c1c(n2CCc2ccc(C)nc2)CCN(C)C1 [LATREPIRDINE]", "Population Healthy Nuclei (%)": 42}

Origin of measurements: ChEMBL document CHEMBL4689842
